Item-by-item account of IC50
Target: Prostaglandin G/H synthase 2 (Homo sapiens) (UniProt P35354)
Sequence (P35354 whole entry, looked up): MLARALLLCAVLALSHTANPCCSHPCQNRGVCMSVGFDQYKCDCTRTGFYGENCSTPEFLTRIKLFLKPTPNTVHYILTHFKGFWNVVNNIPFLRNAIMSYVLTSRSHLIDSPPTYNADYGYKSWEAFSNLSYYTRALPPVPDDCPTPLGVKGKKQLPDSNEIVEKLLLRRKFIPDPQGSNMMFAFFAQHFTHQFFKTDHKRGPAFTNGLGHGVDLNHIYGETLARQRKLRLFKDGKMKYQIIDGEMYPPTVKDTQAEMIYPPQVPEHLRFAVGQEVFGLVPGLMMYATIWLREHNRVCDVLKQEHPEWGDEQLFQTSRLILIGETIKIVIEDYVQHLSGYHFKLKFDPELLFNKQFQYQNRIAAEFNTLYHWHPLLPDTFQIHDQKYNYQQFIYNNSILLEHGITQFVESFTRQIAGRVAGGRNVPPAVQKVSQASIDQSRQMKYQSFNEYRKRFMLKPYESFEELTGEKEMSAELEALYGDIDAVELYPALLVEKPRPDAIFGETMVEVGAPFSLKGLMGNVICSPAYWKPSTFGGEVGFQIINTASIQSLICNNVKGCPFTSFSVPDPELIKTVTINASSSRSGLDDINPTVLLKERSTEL
Test: Inhibition of human COX2 assessed as reduction in PGF2alpha production by ELISA

In the examples that follow, each entry is paired with its recorded IC50.
> print(dat)
                                  structure  result.type  readout.value
1  O=C(Nc1cccc(C(F)(F)F)c1)c1c(O)nnn1CC1CC1         IC50       > 100 µM
2  O=C(Nc1cccc(C(F)(F)F)c1)c1c(O)nnn1Cc1ccccc1         IC50       > 100 µM

Now for the compound whose IC50 we want.
stdin: I'd like to know its IC50. The compound in question is "COc1ccc(Cn2nnc(O)c2C(=O)Nc2cccc(C(F)(F)F)c2)cc1"
stdout: > 100 µM
